Each recorded value in this set is attributed to PubChem BioAssay AID1159580.

Experiment: chemical genetic growth profiling, strain panel (AID 1159580);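 further: tested at 20 µM; growth read once vehicle control cultures reached saturation at 30 °C; lower values mean less growth of the strain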
Settings: S. cerevisiae deletion strains, growth OD, locus YLL001W, strain dnm1, hits give low values
Hit rate of the full screen: of about 5,500 compounds, about 2,000 (36%) were called active. Roughly 18% stayed inconclusive and do not appear here. This is one part of the list.
Rule: measured normalized growth below 1 gets rule met; anything equal to or greater than 1 gets rule not met.

[
  {
    "compound": "CNC[C@H](O)c1cccc(O)c1",
    "category": "rule met"
  },
  {
    "compound": "CC12CCC(=O)C=C1CCc1ccccc12 (configuration not stated)",
    "category": "rule met"
  },
  {
    "compound": "CC(C)c1cccc(O)c(=O)c1",
    "category": "rule met"
  },
  {
    "compound": "CC1=CC(=O)C2C(C)(C)CCC[C@]2(C)[C@@]1(O)CCc1ccoc1 (some centres not stated)",
    "category": "rule met"
  },
  {
    "compound": "CC1(C)S[C@@H]2[C@H](NC(=O)C(C(=O)O)c3ccccc3)C(=O)N2[C@H]1C(=O)O (some centres not stated)",
    "category": "rule met"
  },
  {
    "compound": "CC1(C)C(=O)CC[C@@]2(C)C1C[C@@H](O)[C@@]1(C)C3=CC(=O)O[C@@H](c4ccoc4)[C@]3(C)CCC21 (some centres not stated)",
    "category": "rule not met"
  }
]
